All values here come from paper PMC9684503.

# systemName: rat VMAT2 (Rattus norvegicus, UniProt Q01827)
# Sequence (Q01827 whole entry): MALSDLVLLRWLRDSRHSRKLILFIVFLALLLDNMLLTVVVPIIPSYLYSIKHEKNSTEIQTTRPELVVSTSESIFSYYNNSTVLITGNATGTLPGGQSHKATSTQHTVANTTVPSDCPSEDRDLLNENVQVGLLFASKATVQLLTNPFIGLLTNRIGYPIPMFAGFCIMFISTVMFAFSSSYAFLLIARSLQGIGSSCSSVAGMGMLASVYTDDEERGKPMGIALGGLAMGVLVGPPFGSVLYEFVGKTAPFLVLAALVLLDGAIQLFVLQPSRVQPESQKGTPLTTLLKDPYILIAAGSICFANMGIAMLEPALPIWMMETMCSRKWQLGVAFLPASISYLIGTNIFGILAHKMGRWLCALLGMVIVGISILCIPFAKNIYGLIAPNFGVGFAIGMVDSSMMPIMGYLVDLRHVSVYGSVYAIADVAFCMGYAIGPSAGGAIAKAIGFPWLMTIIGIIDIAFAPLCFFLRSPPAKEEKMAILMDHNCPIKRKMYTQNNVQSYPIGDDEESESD
# procedureText: FFN206 uptake assay in transfected Hek293 cells
Counter-ions that a name gives are not always drawn.
recordedEndpoint: IC50

// below: answered compounds
CC(C)(C)NCC(O)c1cc(Cl)c(N)c(Cl)c1 (stereo not drawn): > 10 µM
CCN(CC)CCCC(C)Nc1ccnc2cc(Cl)ccc12 (stereo not drawn): > 10 µM

Okay, now this compound:
Record request: IC50 value, item CCCC(=O)Nc1ccc(OCC(O)CNC(C)C)c(C(C)=O)c1 (stereo not drawn) [Acebutolol, Acebutolol hydrochloride] > 10 µM

---

# systemName: rat VMAT2-His (Rattus norvegicus)
# Construct: The ORF of rat VMAT2 was subcloned into a pFastBac vector; His; made in house; host or cells: Sf9 insect cells (baculovirus)
# procedureText: Differential scanning fluorimetry (DSF) with CPM dye: change of melting temperature of purified VMAT2
# Type: binding
# condition: Table S2 dose response, compound 0,37 µM; read-out: ΔTm
Structures can show the parent of a compound that is named as a salt.
recordedEndpoint: ΔTm at 37 µM
A complete answer gives the number and then names the unit.

// below: answered compounds
CC(C)NCC(O)COc1ccc(CCOCC2CC2)cc1 (stereo not drawn) [Betaxolol, Betaxolol hydrochloride]: -0.34 °C
COc1ccc2[nH]c([S+]([O-])Cc3ncc(C)c(OC)c3C)nc2n1 (stereo not drawn): 0.24 °C

Query ΔTm at 37 µM on rat VMAT2-His (Rattus norvegicus) for Fc1ccc(C(OCCN2CCN(CCCc3ccccc3)CC2)c2ccc(F)cc2)cc1 [GBR 12909 dihydrochloride] -0.01 °C

---

# systemName: rat VMAT2-His (Rattus norvegicus, UniProt Q01827)
# Construct: The ORF of rat VMAT2 was subcloned into a pFastBac vector; His; made in house; host or cells: Sf9 insect cells (baculovirus)
# procedureText: Differential scanning fluorimetry (DSF) with CPM dye: change of melting temperature of purified VMAT2
# Format: binding
# condition: Table 1, DSF screening, mean ± SD of triplicates
Where a name gives a salt, the structure may show the parent alone.
# MET = ΔTm below 2 oC (exclusive); NOT MET = ΔTm at/above 2 oC

Answer whether the molecule CC(C)n1c(/C=C/C(O)CC(O)CC(=O)O)c(-c2ccc(F)cc2)c2ccccc21 (stereo not drawn) [Fluvastatin, Fluvastatin sodium salt] has ΔTm strictly less than 2 oC NOT MET

And the next one, COc1ccc(CN2CCN(C(c3ccc(F)cc3)c3ccc(F)cc3)CC2)c(OC)c1OC [Lomerizine, Lomerizine hydrochloride] ? MET

And the next one, COc1ccccc1OCCNCC(O)COc1cccc2[nH]c3ccccc3c12 (stereo not drawn) [Carvedilol] ? MET

And the next one, CCCC(=O)Nc1ccc(OCC(O)CNC(C)C)c(C(C)=O)c1 (stereo not drawn) [Acebutolol, Acebutolol hydrochloride] ? NOT MET

And the next one, CC(C)(C)NCC(O)c1cc(Cl)c(N)c(Cl)c1 (stereo not drawn) [Clenbuterol] ? NOT MET
